Data provenance is patent US20250019374A1.

In this section we review reported Dihydrobenzofuran or Indoline x-fold>potency biochemical values for a set of molecules.
tested.target: His tagged PTPN2 (TC45) protein (Homo sapiens (Human))
Sequence (P17706 other isoform, or with tags, fused parts or gaps): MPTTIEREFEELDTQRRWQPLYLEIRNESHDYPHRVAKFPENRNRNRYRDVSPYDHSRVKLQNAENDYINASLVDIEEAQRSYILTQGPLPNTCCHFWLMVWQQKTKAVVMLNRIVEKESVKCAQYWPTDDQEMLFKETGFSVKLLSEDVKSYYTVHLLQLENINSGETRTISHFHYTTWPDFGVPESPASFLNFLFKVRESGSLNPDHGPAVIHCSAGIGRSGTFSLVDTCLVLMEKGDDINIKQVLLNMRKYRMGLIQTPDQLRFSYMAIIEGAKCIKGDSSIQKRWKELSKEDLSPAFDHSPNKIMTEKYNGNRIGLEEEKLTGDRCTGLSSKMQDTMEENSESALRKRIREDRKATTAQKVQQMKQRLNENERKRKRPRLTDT
assay.name: PTPN2 Mobility Shift Assay (MSA)
Type: biochemical
measurement.parameters: x-fold versus corresponding chromane comparator, PTPN2 MSA
Field format: numeric only.

CC(C)CCNC[C@H]1Cc2c(cc(O)c(N3CC(=O)NS3(=O)=O)c2F)N1 [Compound 139] | 0.8

Ask | Give its Dihydrobenzofuran or Indoline x-fold>potency biochemical value. Item: O=C1CN(c2c(O)cc3c(c2F)C[C@H](CNCC2C4CCCC42)O3)S(=O)(=O)N1 (mixture of isomers) [Compound 126]
Reply | 5.3

Ask | Which measured Dihydrobenzofuran or Indoline x-fold>potency biochemical value corresponds to O=C1CN(c2c(O)cc3c(c2F)C[C@H](CNCCC2CCOCC2)O3)S(=O)(=O)N1 [Compound 125] ?
Reply | 2.2

Ask | Would you mind telling me what Dihydrobenzofuran or Indoline x-fold>potency biochemical value was observed for O=C1CN(c2c(O)cc3c(c2F)C[C@H](CNCCC2CCOC2)O3)S(=O)(=O)N1 (stereo partly drawn) [Compound 108] ?
Reply | 2.3

Ask | I would be grateful if you could share the reported Dihydrobenzofuran or Indoline x-fold>potency biochemical for CC1=C(CCNC[C@H]2Cc3c(cc(O)c(N4CC(=O)NS4(=O)=O)c3F)O2)C(C)(C)CCC1 [Compound 128] .
Reply | 12.5

Ask | I have this molecule here, O=C1CN(c2c(O)cc3c(c2F)C[C@H](CNCC2CC(c4ccccc4)C2)O3)S(=O)(=O)N1 (stereo partly drawn) [Compound 129] , and I need its recorded Dihydrobenzofuran or Indoline x-fold>potency biochemical.
Reply | 3.3

Ask | Entry under review: O=C1CN(c2c(O)cc3c(c2F)C[C@H](CNCCC(F)F)N3)S(=O)(=O)N1 [Compound 140] . Reported Dihydrobenzofuran or Indoline x-fold>potency biochemical?
Reply | 0.6

Ask | Please give the measured Dihydrobenzofuran or Indoline x-fold>potency biochemical for this molecule: O=C1CN(c2c(O)cc3c(c2F)C[C@H](CNCC2(CF)CC2)O3)S(=O)(=O)N1 [Compound 131]
Reply | 2.4

Ask | Please look up its Dihydrobenzofuran or Indoline x-fold>potency biochemical: O=C1CN(c2c(O)cc3c(c2F)C[C@H](CNCCCC(F)F)O3)S(=O)(=O)N1 [Compound 107]
Reply | 0.7
